# tgt: T1, human CD22 (human, UniProt P20273 20-687, limits assumed)
# T1 construct: also called SIGLEC-2; human CD22 protein
# T1 sequence (looked up): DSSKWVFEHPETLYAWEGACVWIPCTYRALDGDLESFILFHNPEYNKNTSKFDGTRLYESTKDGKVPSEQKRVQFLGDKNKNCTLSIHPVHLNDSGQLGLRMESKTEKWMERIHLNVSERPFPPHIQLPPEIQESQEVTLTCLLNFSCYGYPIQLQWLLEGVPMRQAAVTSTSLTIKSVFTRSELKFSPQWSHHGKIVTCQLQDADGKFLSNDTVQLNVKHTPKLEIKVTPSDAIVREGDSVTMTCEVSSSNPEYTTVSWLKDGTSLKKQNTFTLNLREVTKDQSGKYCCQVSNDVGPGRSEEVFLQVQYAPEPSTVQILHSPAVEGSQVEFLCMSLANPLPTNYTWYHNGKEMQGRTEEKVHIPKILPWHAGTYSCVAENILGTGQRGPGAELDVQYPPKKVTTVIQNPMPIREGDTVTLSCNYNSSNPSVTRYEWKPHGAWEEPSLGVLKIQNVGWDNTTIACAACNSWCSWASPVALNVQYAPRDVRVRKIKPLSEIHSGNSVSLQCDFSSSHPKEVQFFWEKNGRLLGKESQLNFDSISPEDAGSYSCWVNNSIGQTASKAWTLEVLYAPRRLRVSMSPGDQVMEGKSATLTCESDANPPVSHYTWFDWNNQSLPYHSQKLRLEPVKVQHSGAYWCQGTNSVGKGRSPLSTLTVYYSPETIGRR
# test description: ELISA protein and cell-binding assays
observation type: binding result

anti-CD22 heavy chain-only antibody Clone ID 335179 (antibody, V domains shown, Heavy chain-only antibody (UniAb), no light chain) VH: QLQLQESGPGLVKPSETLSLTCTVSGGSISSSSYYWGWFRHPPGKGLDWIGSIHYSGSTYYNPSLKSRVTISVDTSRNQFSLNLSSVTAADTAVYYCTRDDSSNWRSRGQGTLVTVSS ... binds
anti-CD22 heavy chain-only antibody Clone ID 335185 (antibody, V domains shown, Heavy chain-only antibody (UniAb), no light chain) VH: QLQLQESGPGLVKPSETLSLTCTVSGDSISSGDYYWGWIRQPPGKGLEWIGHIYYSGATYYNPSLKNRVTISVDTSRNQFSLNLSSVTAADTAVYYCTREDSSNWRSRGQGTLVTVSS ... binds
